// provenance: patent US8623879B2

# System Tested: human PDE9A2 (Homo sapiens, UniProt O76083)
# Construct: made in house; host or cells: Sf9 insect cells (infected); crude lysate used as enzyme source
# Sequence (O76083 1-533 isoform O76083-2): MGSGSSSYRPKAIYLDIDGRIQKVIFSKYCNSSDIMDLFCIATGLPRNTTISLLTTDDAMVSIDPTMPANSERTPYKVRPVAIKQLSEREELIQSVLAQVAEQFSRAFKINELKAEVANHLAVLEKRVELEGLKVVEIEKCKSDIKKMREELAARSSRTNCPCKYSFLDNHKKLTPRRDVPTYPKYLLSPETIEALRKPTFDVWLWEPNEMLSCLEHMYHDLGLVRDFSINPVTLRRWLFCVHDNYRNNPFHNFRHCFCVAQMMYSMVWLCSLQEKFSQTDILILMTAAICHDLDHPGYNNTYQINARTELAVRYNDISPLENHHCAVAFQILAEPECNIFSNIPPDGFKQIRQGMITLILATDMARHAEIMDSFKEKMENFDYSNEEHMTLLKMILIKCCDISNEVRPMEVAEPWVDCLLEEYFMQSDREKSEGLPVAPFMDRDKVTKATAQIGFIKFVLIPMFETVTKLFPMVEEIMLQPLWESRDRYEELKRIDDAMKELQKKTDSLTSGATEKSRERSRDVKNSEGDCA
# Assay Name: PDE9A2 enzymatic activity assay (scintillation proximity assay, SPA)
# Assay type: biochemical
# Measurement Context: read-out: % inhibition of PDE9A2 (at 10 micromolar concentration), 10 micromolar concentration; values above 100% adjusted to 100%
Quantity: inhibition at 10 µM

Incoming: Returns the measured inhibition at 10 µM for the input compound. Input: O=C(c1ccccc1)N1CCCC(n2ncc3c(=O)[nH]c(Cc4ccccn4)nc32)C1 (racemic) [Example 175]
Outgoing: 88%

Incoming: Returns the measured inhibition at 10 µM for the input compound. Input: N#Cc1ccccc1Cc1nc2c(cnn2C2CCCOC2)c(=O)[nH]1 (racemic) [Example 126]
Outgoing: 98%

Incoming: Returns the measured inhibition at 10 µM for the input compound. Input: COC(=O)N1CCCC(n2ncc3c(=O)[nH]c(Cc4ccccc4)nc32)C1 (racemic) [Example 155]
Outgoing: 100%

Incoming: Returns the measured inhibition at 10 µM for the input compound. Input: O=c1[nH]c(CC2CCCCC2)nc2c1cnn2C1CCOC1 (racemic) [Example 75]
Outgoing: 98%

Incoming: Returns the measured inhibition at 10 µM for the input compound. Input: O=C(c1ccccc1)N1CCC(n2ncc3c(=O)[nH]c(CC4CCC4)nc32)C1 (racemic) [Example 171]
Outgoing: 100%

Incoming: Returns the measured inhibition at 10 µM for the input compound. Input: O=c1[nH]c(Cc2ccccc2OC2CCOCC2)nc2c1cnn2C1CCOCC1 [Example 60]
Outgoing: 97%

Incoming: Returns the measured inhibition at 10 µM for the input compound. Input: O=c1[nH]c(Cc2ccccc2OC(F)(F)F)nc2c1cnn2C1CCCOC1 (racemic) [Example 91]
Outgoing: 99%

Incoming: Returns the measured inhibition at 10 µM for the input compound. Input: CN1CCC(n2ncc3c(=O)[nH]c(Cc4ccccc4)nc32)C1 (racemic) [Example 210]
Outgoing: 97%

Incoming: Returns the measured inhibition at 10 µM for the input compound. Input: CN1CCC(n2ncc3c(=O)[nH]c(CC4CCC4)nc32)C1 (racemic) [Example 214]
Outgoing: 98%

Incoming: Returns the measured inhibition at 10 µM for the input compound. Input: CC1(C)CC(n2ncc3c(=O)[nH]c(CC4CCC4)nc32)CCO1 (racemic) [Example 108]
Outgoing: 89%

Incoming: Returns the measured inhibition at 10 µM for the input compound. Input: COc1ccc(C#N)c(Cc2nc3c(cnn3C3CCOCC3)c(=O)[nH]2)c1 [Example 35]
Outgoing: 100%

Incoming: Returns the measured inhibition at 10 µM for the input compound. Input: O=c1[nH]c(Cc2ccccc2OC(F)(F)F)nc2c1cnn2C1CCNC1 (racemic) [Example 200]
Outgoing: 91%

Incoming: Returns the measured inhibition at 10 µM for the input compound. Input: CCOc1ccccc1Cc1nc2c(cnn2C2CCCN(C(C)=O)C2)c(=O)[nH]1 (racemic) [Example 179]
Outgoing: 91%

Incoming: Returns the measured inhibition at 10 µM for the input compound. Input: O=c1[nH]c(CCC(F)(F)F)nc2c1cnn2C1CCOCC1 [Example 34]
Outgoing: 93%

Incoming: Returns the measured inhibition at 10 µM for the input compound. Input: CN1CCCC(n2ncc3c(=O)[nH]c(Cc4cccc(C(F)(F)F)c4)nc32)C1 (racemic) [Example 216]
Outgoing: 96%

Incoming: Returns the measured inhibition at 10 µM for the input compound. Input: O=c1[nH]c(Cc2ccccc2C(F)(F)F)nc2c1cnn2C1CCCOC1 (racemic) [Example 97]
Outgoing: 98%

Incoming: Returns the measured inhibition at 10 µM for the input compound. Input: O=c1[nH]c(CC2CCCC2)nc2c1cnn2C1CCCCO1 (racemic) [Example 147]
Outgoing: 99%

Incoming: Returns the measured inhibition at 10 µM for the input compound. Input: O=c1[nH]c(CC2CC2)nc2c1cnn2C1CCOCC1 [Example 47]
Outgoing: 97%

Incoming: Returns the measured inhibition at 10 µM for the input compound. Input: CC(C)(C)OC(=O)N1CCCC(n2ncc3c(=O)[nH]c(CC4CCC4)nc32)C1 (racemic) [Example 32]
Outgoing: 100%

Incoming: Returns the measured inhibition at 10 µM for the input compound. Input: COc1ccc(Cc2nc3c(cnn3C3CCOCC3)c(=O)[nH]2)c(Cl)c1 [Example 40-2]
Outgoing: 100%

Incoming: Returns the measured inhibition at 10 µM for the input compound. Input: O=c1[nH]c(Cc2ncccc2C(F)(F)F)nc2c1cnn2C1CCOCC1 [Example 63]
Outgoing: 92%

Incoming: Returns the measured inhibition at 10 µM for the input compound. Input: CC(=O)N1CCCC(n2ncc3c(=O)[nH]c(Cc4ccccc4)nc32)C1 (racemic) [Example 158]
Outgoing: 97%

Incoming: Returns the measured inhibition at 10 µM for the input compound. Input: O=c1[nH]c(Cc2ccc(F)cc2Cl)nc2c1cnn2C1CCOCC1 [Example 10]
Outgoing: 98%

Incoming: Returns the measured inhibition at 10 µM for the input compound. Input: O=c1[nH]c(Cc2cccc(F)c2)nc2c1cnn2C1CCOCC1 [Example 139]
Outgoing: 99%

Incoming: Returns the measured inhibition at 10 µM for the input compound. Input: O=c1[nH]c(Cc2ccc(F)c(Cl)c2)nc2c1cnn2C1CCCOC1 (racemic) [Example 102]
Outgoing: 100%

Incoming: Returns the measured inhibition at 10 µM for the input compound. Input: O=C(c1ccccc1)N1CCCC(n2ncc3c(=O)[nH]c(Cc4ccccc4F)nc32)C1 (racemic) [Example 186]
Outgoing: 97%

Incoming: Returns the measured inhibition at 10 µM for the input compound. Input: CC1(C)CC(n2ncc3c(=O)[nH]c(CC4CCCC4)nc32)CCO1 (racemic) [Example 104]
Outgoing: 95%

Incoming: Returns the measured inhibition at 10 µM for the input compound. Input: O=c1[nH]c(Cc2ccc(F)cc2)nc2c1cnn2C1CCOC1 (racemic) [Example 79]
Outgoing: 99%

Incoming: Returns the measured inhibition at 10 µM for the input compound. Input: O=c1[nH]c(Cc2cccc(C(F)(F)F)c2)nc2c1cnn2C1CCCNC1 (racemic) [Example 205]
Outgoing: 100%

Incoming: Returns the measured inhibition at 10 µM for the input compound. Input: O=c1[nH]c(Cc2cccc(C(F)(F)F)c2)nc2c1cnn2C1CCOC1 (racemic) [Example 85]
Outgoing: 99%

Incoming: Returns the measured inhibition at 10 µM for the input compound. Input: O=c1[nH]c(Cc2cccnc2)nc2c1cnn2C1CCOCC1 [Example 123]
Outgoing: 91%

Incoming: Returns the measured inhibition at 10 µM for the input compound. Input: O=c1[nH]c(CC2CCCCC2)nc2c1cnn2C1CCOCC1 [Example 144]
Outgoing: 100%

Incoming: Returns the measured inhibition at 10 µM for the input compound. Input: O=c1[nH]c(Cc2ccccc2O[C@@H]2CCOC2)nc2c1cnn2C1CCOCC1 [Example 57]
Outgoing: 100%

Incoming: Returns the measured inhibition at 10 µM for the input compound. Input: COc1cccnc1Cc1nc2c(cnn2C2CCCOC2)c(=O)[nH]1 (racemic) [Example 122]
Outgoing: 85%
